- target.or.system: UniProtKB P41180
- Sequence (P41180 20-1078): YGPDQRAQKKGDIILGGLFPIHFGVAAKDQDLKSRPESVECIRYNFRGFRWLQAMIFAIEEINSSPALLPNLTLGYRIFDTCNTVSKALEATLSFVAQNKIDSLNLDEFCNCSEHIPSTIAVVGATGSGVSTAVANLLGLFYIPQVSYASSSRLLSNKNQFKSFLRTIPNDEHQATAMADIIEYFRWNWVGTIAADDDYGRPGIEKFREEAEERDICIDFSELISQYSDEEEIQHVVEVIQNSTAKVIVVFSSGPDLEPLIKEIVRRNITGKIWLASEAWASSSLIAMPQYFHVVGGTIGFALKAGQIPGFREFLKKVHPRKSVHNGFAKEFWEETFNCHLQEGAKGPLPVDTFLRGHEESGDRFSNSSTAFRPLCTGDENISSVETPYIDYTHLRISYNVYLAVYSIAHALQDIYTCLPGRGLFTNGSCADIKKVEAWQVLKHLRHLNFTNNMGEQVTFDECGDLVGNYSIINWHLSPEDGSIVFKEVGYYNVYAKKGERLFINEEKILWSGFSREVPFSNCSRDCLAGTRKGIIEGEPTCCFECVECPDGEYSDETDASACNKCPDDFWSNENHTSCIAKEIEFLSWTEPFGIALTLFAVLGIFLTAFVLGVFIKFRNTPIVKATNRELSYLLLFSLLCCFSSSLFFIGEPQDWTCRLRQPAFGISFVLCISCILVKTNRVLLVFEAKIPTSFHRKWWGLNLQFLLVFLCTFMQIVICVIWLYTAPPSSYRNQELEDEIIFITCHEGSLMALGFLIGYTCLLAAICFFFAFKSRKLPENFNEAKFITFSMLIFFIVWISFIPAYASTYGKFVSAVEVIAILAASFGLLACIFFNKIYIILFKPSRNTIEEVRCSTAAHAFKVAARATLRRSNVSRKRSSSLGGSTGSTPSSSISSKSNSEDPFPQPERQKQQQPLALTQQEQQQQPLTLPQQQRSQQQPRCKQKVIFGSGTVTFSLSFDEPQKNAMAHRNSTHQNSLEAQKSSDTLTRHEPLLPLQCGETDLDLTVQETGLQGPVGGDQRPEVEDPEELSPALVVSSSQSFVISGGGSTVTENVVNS
- test.name: Calcium mobilization assay, wild-type CaSR in PEAKrapid cells
- condition.details: WT CaSR, PEAKrapid cells, 1 mM CaCl2 in assay buffer, mean ± s.e.m., n = 3
*1 amine or outer side, *2 acyl side, *3 side chain or, on linkers, in order; H or OH if unused. Where a SMILES comes first, the peptide text is derived from it. γGlu = O=C(O)[CH](CCC(=O)[*:2])N[*:1]
assay.endpoint: EC50 (µM)
Just the number in µM, nothing appended.

Would you please look over these solved cases?
{"columns": ["compound", "EC50, µM"],
 "data": [
  ["CC(C)C(NC(=O)CCC(N)C(=O)O)C(=O)NCC(=O)O (stereo not drawn) [γ-EVG, γ-glutamyl-valyl-glycine] (γGlu-Val-Gly-OH; configuration not given here)", 0.18],
  ["N[C@@H](Cc1ccc(O)cc1)C(=O)O [L-Tyr, L-tyrosine]", 3900],
  ["[Ca+2].[Cl-].[Cl-] [CaCl2]", 190]
]}

Switching to the query record.
The measured EC50 associated with CC(C)[C@H](NC(=O)CC[C@H](N)C(=O)O)C(=O)O [γ-EV, γ-glutamyl-valine] reads 10.7
